Target: T1, ER-luminal part of the human Bri protein (human, UniProt Q9Y287 90-236, limits assumed)
T1 construct: domain: ER-luminal part
T1 sequence (looked up): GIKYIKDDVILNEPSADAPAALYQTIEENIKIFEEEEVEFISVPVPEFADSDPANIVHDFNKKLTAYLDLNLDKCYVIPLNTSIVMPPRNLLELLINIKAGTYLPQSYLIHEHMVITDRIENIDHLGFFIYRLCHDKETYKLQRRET
Experiment: cellulose-bound decamer SPOT membrane, control
measurement kind: binding result

binder	binding result
PPPPPPPPPP (also called P counterpart) [cellulose-bound decamer of P]	no binding
AAAAAAAAAA (also called decamer of A) [AAAAAAAAAA, poly-alanine 10-mer peptide, spot 18]	no binding
MMMMMMMMMM (also called stretch of M) [cellulose-bound decamer of M]	no binding
IIIIIIIIII (also called stretch of I) [cellulose-bound decamer of I]	no binding
WWWWWWWWWW (also called W counterpart) [cellulose-bound decamer of W]	no binding

Return reported binding result values for all items listed beneath this line.
1. LLLLLLLLLL (also called decamer of L) [LLLLLLLLLL, poly-leucine 10-mer peptide, spot 17]
2. YYYYYYYYYY (also called stretch of Y) [cellulose-bound decamer of Y]
3. GGGGGGGGGG (also called G counterpart) [cellulose-bound decamer of G]
4. FFFFFFFFFF (also called stretch of F) [cellulose-bound decamer of F]

A)
1. no binding
2. no binding
3. no binding
4. no binding
